tested on: TK-10 renal; assay: NCI tumour cell line growth inhibition, 48 h
attributeMeasured: TGI (µM)
Numbers only here, please. The scale is µM.

COc1cc2nc(-c3cccs3)nc(N3C(c4cc(OC)c(OC)c(OC)c4)=NNC(=O)c4ccccc43)c2cc1OC = 51.9
C1CC[N-]CC1.CC(=N\O)/C(C)=N/O.CC(=N\O)/C(C)=N/O.C[CH-]C(C)O.[Co+2] = 60.4
O=C(NNc1nc(-c2ccccc2)cs1)Nc1ccccc1 = 48.6
CCOc1ccccc1N=Cc1c2ccccc2cc2ccccc12 = 67.2

Kindly review the next compound as well.
Ask: Consider the compound CC(=O)/C(=C/N1CCN(C(=O)c2ccco2)C1=S)C(=O)c1ccccc1 and give its measured TGI.
Result: 28.6

###

test system: UACC-62 melanoma; assay: NCI tumour cell line growth inhibition, 48 h
attributeMeasured: TGI (µM)
Numbers only here, please. The scale is µM.

Clc1ncnc2c1nc(C#Cc1ccccc1)n2C1CCCCO1 (stereo not given) = 5.84
N#Cc1cc2c(cc1Cl)SC(=Nc1ccccc1)N(S(=O)(=O)c1ccc(Br)s1)S2(=O)=O = 36.3
CC(=O)[O][Hg][c]1s[c]([Hg][O]C(C)=O)[c]([Hg][O]C(C)=O)[c]1[Hg][O]C(C)=O = 27.4

Kindly review the next compound as well.
Ask: UACC-62 melanoma / TGI / COc1cc([C@@H]2c3cc4c(cc3[C@@H](NCc3cccc(F)c3)C3COC(=O)[C@@H]32)OCO4)cc(OC)c1O (stereo not given in full) : value?
Result: 10.3

###

system: EKVX NSCLC; test: NCI tumour cell line growth inhibition, 48 h
attributeMeasured: TGI (µM)
Numbers only here, please. The scale is µM.

Solved cases below.
COc1ccc2c(c1)C=CC1C2CC[C@]2(C)C(NC(=O)/C=C/c3ccc(O)c(O)c3)CCC12 (stereo not given in full) = 56.5
N#Cc1cc2c(cc1Cl)SC(=Nc1ccccc1)N(S(=O)(=O)c1ccc(Br)s1)S2(=O)=O = 35.1
C=Cc1cc(OC)c2c(c1)c(=O)oc1c2cc(OC)c2c(O)ccc(C3OC(C(C)O)C(O)C3O)c21 (stereo not given) = 0.0336

Kindly review the next compound as well.
Ask: Consider the compound COc1ccc(/C=C2/CSC/C(=C/c3ccc(OC)c(OC)c3)C2=O)cc1OC and give its measured TGI.
Result: 42.8

###

# Lookup of reported GI50 keyed by entry
tested on: CAKI-1 renal; experiment: NCI tumour cell line growth inhibition, 48 h

Solved cases below.
C=C(CN1CCN(c2ccc(F)c(Cl)c2)CC1)c1ccc(C(=O)Nc2ccccc2N)cc1 = 4.12 µM
CNC(=O)c1cc(-c2ccc(F)cc2)cc(-c2ccc(S(=O)(=O)N3CCCC3)cc2)c1N = 12.6 µM
Cc1cc2nc(-c3ccc(O)c(O)c3)n(Cc3ccc(O)c(O)c3)c2cc1C = 17 µM
N#Cc1cc2c(cc1Cl)SC(=Nc1ccccc1)N(S(=O)(=O)c1ccc(Br)s1)S2(=O)=O = 17.5 µM
COc1ccc(S(=O)(=O)Nc2cc(Sc3cccc4cccnc34)c(O)c3ccccc23)cc1 = 2.53 µM

Ask: Consider the compound Cc1c2ccccc2c(C)n2c1nc1cc(Cl)c(Cl)cc12 and give its measured GI50.
Result: 15.1 µM

Ask: Consider the compound Cn1cccc1-c1cc(-c2ccccc2)nc(N)c1C#N and give its measured GI50.
Result: > 100 µM

Ask: Consider the compound CC[C@@H](C(=O)[C@@H](C)[C@@H](O)[C@H](C)[C@@H]1O[C@@H]([C@@H](CC)C(=O)O)CC[C@@H]1C)[C@H]1O[C@]2(C=C[C@@H](O)[C@]3(CC[C@@](C)([C@H]4CC[C@](O)(CC)[C@H](C)O4)O3)O2)[C@H](C)C[C@@H]1C and give its measured GI50.
Result: 1.61 µM

Origin of the recorded values: PubChem BioAssay (NCI)
